System: A673/TR/shEF
Experiment: cell viability (LOESS-normalised, relative to median of negative controls) (log2 ratio); higher = more viable cells (less compound effect), active = hit call of the paper (over 3 MAD below the median)
Details: 0.926 µM; library screen: screen3; EWS-FLI1 expression: high (no doxycycline); treatment time: 72 h
In all, about 3,200 compounds went through this assay and about 300 (9.4%) showed activity. The list comes from a sample in which actives are over-represented; it also holds close analogues and randomly drawn compounds.
# valid calls are active, inactive; nothing else

COMPOUND	LABEL
COc1cccc2c1C(=O)c1c(O)c3c(c(O)c1C2=O)C[C@@](O)(C(C)=O)C[C@@H]3O[C@H]1C[C@H](N)[C@H](O)[C@H](C)O1	active
Cc1cn([C@H]2C=C[C@@H](CO)O2)c(=O)[nH]c1=O	inactive
Nc1ccn([C@H]2CC[C@@H](CO)O2)c(=O)n1	inactive

Write down the call the test reported for this compound. Item: `Nc1ncn([C@H]2C[C@H](O)[C@@H](CO)O2)c(=O)n1`
inactive

Write down the call the test reported for this compound. Item: `CC(C)(O)[C@@H]1CC[C@](C)([C@H]2[C@@H](O)C[C@@]3(C)[C@@H]4C[C@H](O[C@@H]5O[C@H](CO)[C@@H](O)[C@H](O)[C@H]5O)[C@H]5C(C)(C)[C@@H](O[C@@H]6OC[C@@H](O)[C@H](O)[C@H]6O)CC[C@@]56C[C@@]46CC[C@]23C)O1`
inactive

Write down the call the test reported for this compound. Item: `COc1cccc2c1C(=O)c1c(O)c3c(c(O)c1C2=O)C[C@@](O)(C(=O)CO)C[C@@H]3O[C@H]1C[C@H](N)[C@@H](O)[C@H](C)O1`
active

Write down the call the test reported for this compound. Item: `Nc1ccn([C@@H]2CS[C@H](CO)O2)c(=O)n1`
inactive

Write down the call the test reported for this compound. Item: `O=c1[nH]c(=O)n([C@H]2C[C@H](O)[C@@H](CO)O2)cc1C(F)(F)F`
inactive

Write down the call the test reported for this compound. Item: `Nc1ccn([C@@H]2O[C@H](CO)[C@@H](O)C2(F)F)c(=O)n1`
active

Write down the call the test reported for this compound. Item: `CCC1(c2ccccc2)C(=O)NCNC1=O`
inactive

Write down the call the test reported for this compound. Item: `O=c1[nH]c(=O)n([C@H]2C[C@H](O)[C@@H](CO)O2)cc1F`
active

Write down the call the test reported for this compound. Item: CC(C(=O)O)c1cccc(C(=O)c2ccccc2)c1 (configuration not stated)
inactive

Write down the call the test reported for this compound. Item: `NC(=O)c1ncn([C@@H]2O[C@H](CO)[C@@H](O)[C@H]2O)n1`
inactive

Write down the call the test reported for this compound. Item: `CCCCCOC(=O)Nc1nc(=O)n([C@@H]2O[C@H](C)[C@@H](O)[C@H]2O)cc1F`
inactive

Write down the call the test reported for this compound. Item: `COc1cccc2c1C(=O)c1c(O)c3c(c(O)c1C2=O)C[C@@](O)(C(=O)CO)C[C@@H]3O[C@H]1C[C@H](N)[C@H](O)[C@H](C)O1`
active

Write down the call the test reported for this compound. Item: `CC[C@]1(O)C[C@H]2CN(CCc3c([nH]c4ccccc34)[C@@](C(=O)OC)(c3cc4c(cc3OC)N(C=O)[C@H]3[C@@](O)(C(=O)OC)[C@H](OC(C)=O)[C@]5(CC)C=CCN6CC[C@]43[C@@H]65)C2)C1`
active

Write down the call the test reported for this compound. Item: `Nc1ccn([C@@H]2O[C@H](CO)[C@@H](O)[C@@H]2O)c(=O)n1`
active
